Each recorded value in this set is attributed to patent US7659244B2.

System: D341
Conditions: read-out: Inhibition of H^3 Thymidine uptake (IC50 in nM); D341 cells, 96 hours incubation
Readout type: IC50

1) CO[C@H]1C[C@@H]2CC[C@@H](C)[C@@](O)(O2)C(=O)C(=O)N2CCCC[C@H]2C(=O)O[C@H]([C@H](C)C[C@@H]2CC[C@@H](OC(=O)NC(CO)CO)[C@H](OC)C2)CC(=O)[C@H](C)/C=C(\C)[C@@H](O)[C@@H](OC)C(=O)[C@H](C)C[C@H](C)/C=C/C=C/C=C/1C [Compound 7o]: 36.2 nM
2) COC1CC2CCC(C)C(O)(O2)C(=O)C(=O)N2CCCCC2C(=O)OC(C(C)CC2CCC(OC(=O)NC(CO)CC(C)C)C(OC)C2)CC(=O)C(C)C=C(C)C(O)C(OC)C(=O)C(C)CC(C)C=CC=CC=C1C (centres unmarked) [Compound 7s]: 103 nM
3) CO[C@H]1C[C@@H]2CC[C@@H](C)[C@@](O)(O2)C(=O)C(=O)N2CCCC[C@H]2C(=O)O[C@H]([C@H](C)C[C@@H]2CC[C@@H](OC(=O)NC(C)(CO)CO)[C@H](OC)C2)CC(=O)[C@H](C)/C=C(\C)[C@@H](O)[C@@H](OC)C(=O)[C@H](C)C[C@H](C)/C=C/C=C/C=C/1C [Compound 7p]: 10.2 nM
4) CO[C@H]1C[C@@H]2CC[C@@H](C)[C@@](O)(O2)C(=O)C(=O)N2CCCC[C@H]2C(=O)O[C@H]([C@H](C)C[C@@H]2CC[C@@H](OC(=O)N[C@@H](CO)[C@@H](O)c3ccccc3)[C@H](OC)C2)CC(=O)[C@H](C)/C=C(\C)[C@@H](O)[C@@H](OC)C(=O)[C@H](C)C[C@H](C)/C=C/C=C/C=C/1C [Compound 7l]: 27.6 nM
5) COC1CC2CCC(C)C(O)(O2)C(=O)C(=O)N2CCCCC2C(=O)OC(C(C)CC2CCC(OC(=O)NC(CO)CC(C)C)C(OC)C2)CC(=O)C(C)C=C(C)C(O)C(OC)C(=O)C(C)CC(C)C=CC=CC=C1C (centres unmarked) [Compound 7t]: 61.2 nM

---

Below, each entry is listed alongside its reported IC50.
Tested on: SKMEL-2
Conditions: read-out: Inhibition of H^3 Thymidine uptake (IC50 in nM); SKMEL-2 cells, 96 hours incubation
Readout type: IC50 (nM)

1) CO[C@H]1C[C@@H]2CC[C@@H](C)[C@@](O)(O2)C(=O)C(=O)N2CCCC[C@H]2C(=O)O[C@H]([C@H](C)C[C@@H]2CC[C@@H](OC(=O)N[C@@H](CO)[C@@H](O)c3ccccc3)[C@H](OC)C2)CC(=O)[C@H](C)/C=C(\C)[C@@H](O)[C@@H](OC)C(=O)[C@H](C)C[C@H](C)/C=C/C=C/C=C/1C [Compound 7l]: 29.1
2) CO[C@H]1C[C@@H]2CC[C@@H](C)[C@@](O)(O2)C(=O)C(=O)N2CCCC[C@H]2C(=O)O[C@H]([C@H](C)C[C@@H]2CC[C@@H](OC(=O)NC(CO)CO)[C@H](OC)C2)CC(=O)[C@H](C)/C=C(\C)[C@@H](O)[C@@H](OC)C(=O)[C@H](C)C[C@H](C)/C=C/C=C/C=C/1C [Compound 7o]: 48.3
3) CO[C@H]1C[C@@H]2CC[C@@H](C)[C@@](O)(O2)C(=O)C(=O)N2CCCC[C@H]2C(=O)O[C@H]([C@H](C)C[C@@H]2CC[C@@H](OC(=O)CCC(=O)N[C@H](CO)Cc3ccccc3)[C@H](OC)C2)CC(=O)[C@H](C)/C=C(\C)[C@@H](O)[C@@H](OC)C(=O)[C@H](C)C[C@H](C)/C=C/C=C/C=C/1C [Compound 7v]: 81
4) CO[C@H]1C[C@@H]2CC[C@@H](C)[C@@](O)(O2)C(=O)C(=O)N2CCCC[C@H]2C(=O)O[C@H]([C@H](C)C[C@@H]2CC[C@@H](OC(=O)NC(CO)(CO)CO)[C@H](OC)C2)CC(=O)[C@H](C)/C=C(\C)[C@@H](O)[C@@H](OC)C(=O)[C@H](C)C[C@H](C)/C=C/C=C/C=C/1C [Compound 7u]: 6.15
5) COC1CC2CCC(C)C(O)(O2)C(=O)C(=O)N2CCCCC2C(=O)OC(C(C)CC2CCC(OC(=O)NC(CO)CC(C)C)C(OC)C2)CC(=O)C(C)C=C(C)C(O)C(OC)C(=O)C(C)CC(C)C=CC=CC=C1C (centres unmarked) [Compound 7s]: 154
6) COC(=O)C(NC(=O)O[C@@H]1CC[C@@H](C[C@@H](C)[C@@H]2CC(=O)[C@H](C)/C=C(\C)[C@@H](O)[C@@H](OC)C(=O)[C@H](C)C[C@H](C)/C=C/C=C/C=C(\C)[C@@H](OC)C[C@@H]3CC[C@@H](C)[C@@](O)(O3)C(=O)C(=O)N3CCCC[C@H]3C(=O)O2)C[C@H]1OC)C(=O)OC [Compound 7w]: 378
7) CO[C@H]1C[C@@H]2CC[C@@H](C)[C@@](O)(O2)C(=O)C(=O)N2CCCC[C@H]2C(=O)O[C@H]([C@H](C)C[C@@H]2CC[C@@H](OC(=O)N[C@@H](CO)[C@H](C)O)[C@H](OC)C2)CC(=O)[C@H](C)/C=C(\C)[C@@H](O)[C@@H](OC)C(=O)[C@H](C)C[C@H](C)/C=C/C=C/C=C/1C [Compound 7q]: 9.15
8) CO[C@H]1C[C@@H]2CC[C@@H](C)[C@@](O)(O2)C(=O)C(=O)N2CCCC[C@H]2C(=O)O[C@H]([C@H](C)C[C@@H]2CC[C@@H](OC(=O)NC(C)(CO)CO)[C@H](OC)C2)CC(=O)[C@H](C)/C=C(\C)[C@@H](O)[C@@H](OC)C(=O)[C@H](C)C[C@H](C)/C=C/C=C/C=C/1C [Compound 7p]: 17.7
9) COC1CC2CCC(C)C(O)(O2)C(=O)C(=O)N2CCCCC2C(=O)OC(C(C)CC2CCC(OC(=O)NC(CO)CC(C)C)C(OC)C2)CC(=O)C(C)C=C(C)C(O)C(OC)C(=O)C(C)CC(C)C=CC=CC=C1C (centres unmarked) [Compound 7t]: 73.2
10) CCC(C)C(CO)NC(=O)O[C@@H]1CC[C@@H](C[C@@H](C)[C@@H]2CC(=O)[C@H](C)/C=C(\C)[C@@H](O)[C@@H](OC)C(=O)[C@H](C)C[C@H](C)/C=C/C=C/C=C(\C)[C@@H](OC)C[C@@H]3CC[C@@H](C)[C@@](O)(O3)C(=O)C(=O)N3CCCC[C@H]3C(=O)O2)C[C@H]1OC (some centres unmarked) [Compound 7m]: 147
11) CO[C@H]1C[C@@H]2CC[C@@H](C)[C@@](O)(O2)C(=O)C(=O)N2CCCC[C@H]2C(=O)O[C@H]([C@H](C)C[C@@H]2CC[C@@H](OC(=O)N[C@H](CO)Cc3ccccc3)[C@H](OC)C2)CC(=O)[C@H](C)/C=C(\C)[C@@H](O)[C@@H](OC)C(=O)[C@H](C)C[C@H](C)/C=C/C=C/C=C/1C [Compound 7j]: 157

---

Listed below: IC50 values for each entry.
Tested on: MCF-7
Settings: read-out: Inhibition of H^3 Thymidine uptake (IC50 in nM); MCF-7 cells, 96 hours incubation
Readout type: IC50 (nM)

1. CO[C@H]1C[C@@H]2CC[C@@H](C)[C@@](O)(O2)C(=O)C(=O)N2CCCC[C@H]2C(=O)O[C@H]([C@H](C)C[C@@H]2CC[C@@H](OC(=O)N[C@H](CO)[C@@H](C)O)[C@H](OC)C2)CC(=O)[C@H](C)/C=C(\C)[C@@H](O)[C@@H](OC)C(=O)[C@H](C)C[C@H](C)/C=C/C=C/C=C/1C [Compound 7r]: 1.86
2. CO[C@H]1C[C@@H]2CC[C@@H](C)[C@@](O)(O2)C(=O)C(=O)N2CCCC[C@H]2C(=O)O[C@H]([C@H](C)C[C@@H]2CC[C@@H](OC(=O)NC(CO)(CO)CO)[C@H](OC)C2)CC(=O)[C@H](C)/C=C(\C)[C@@H](O)[C@@H](OC)C(=O)[C@H](C)C[C@H](C)/C=C/C=C/C=C/1C [Compound 7u]: 1.54

---

Tested on: D341
Conditions: read-out: Inhibition of H^3 Thymidine uptake (IC50 in nM); D341 cells, 96 hours incubation
Readout type: IC50 (nM)

1) CO[C@H]1C[C@@H]2CC[C@@H](C)[C@@](O)(O2)C(=O)C(=O)N2CCCC[C@H]2C(=O)O[C@H]([C@H](C)C[C@@H]2CC[C@@H](OC(=O)CCC(=O)N[C@H](CO)Cc3ccccc3)[C@H](OC)C2)CC(=O)[C@H](C)/C=C(\C)[C@@H](O)[C@@H](OC)C(=O)[C@H](C)C[C@H](C)/C=C/C=C/C=C/1C: 15
2) CO[C@H]1C[C@@H]2CC[C@@H](C)[C@@](O)(O2)C(=O)C(=O)N2CCCC[C@H]2C(=O)O[C@H]([C@H](C)C[C@@H]2CC[C@@H](OC(=O)N[C@H](CO)Cc3ccccc3)[C@H](OC)C2)CC(=O)[C@H](C)/C=C(\C)[C@@H](O)[C@@H](OC)C(=O)[C@H](C)C[C@H](C)/C=C/C=C/C=C/1C: 106
